Listed compounds paired with reported pKd
- SUBJECT OF TEST: interaction of ICAM-1 with the Leukointegrin CD18/CD11a (LFA-1) (Homo sapiens, UniProt P05107+P20701)
- Construct: endogenous in cells; sICAM-1: made in house, secreted from transfected CHO DUX cells
- Sequence (P20701 26-1170): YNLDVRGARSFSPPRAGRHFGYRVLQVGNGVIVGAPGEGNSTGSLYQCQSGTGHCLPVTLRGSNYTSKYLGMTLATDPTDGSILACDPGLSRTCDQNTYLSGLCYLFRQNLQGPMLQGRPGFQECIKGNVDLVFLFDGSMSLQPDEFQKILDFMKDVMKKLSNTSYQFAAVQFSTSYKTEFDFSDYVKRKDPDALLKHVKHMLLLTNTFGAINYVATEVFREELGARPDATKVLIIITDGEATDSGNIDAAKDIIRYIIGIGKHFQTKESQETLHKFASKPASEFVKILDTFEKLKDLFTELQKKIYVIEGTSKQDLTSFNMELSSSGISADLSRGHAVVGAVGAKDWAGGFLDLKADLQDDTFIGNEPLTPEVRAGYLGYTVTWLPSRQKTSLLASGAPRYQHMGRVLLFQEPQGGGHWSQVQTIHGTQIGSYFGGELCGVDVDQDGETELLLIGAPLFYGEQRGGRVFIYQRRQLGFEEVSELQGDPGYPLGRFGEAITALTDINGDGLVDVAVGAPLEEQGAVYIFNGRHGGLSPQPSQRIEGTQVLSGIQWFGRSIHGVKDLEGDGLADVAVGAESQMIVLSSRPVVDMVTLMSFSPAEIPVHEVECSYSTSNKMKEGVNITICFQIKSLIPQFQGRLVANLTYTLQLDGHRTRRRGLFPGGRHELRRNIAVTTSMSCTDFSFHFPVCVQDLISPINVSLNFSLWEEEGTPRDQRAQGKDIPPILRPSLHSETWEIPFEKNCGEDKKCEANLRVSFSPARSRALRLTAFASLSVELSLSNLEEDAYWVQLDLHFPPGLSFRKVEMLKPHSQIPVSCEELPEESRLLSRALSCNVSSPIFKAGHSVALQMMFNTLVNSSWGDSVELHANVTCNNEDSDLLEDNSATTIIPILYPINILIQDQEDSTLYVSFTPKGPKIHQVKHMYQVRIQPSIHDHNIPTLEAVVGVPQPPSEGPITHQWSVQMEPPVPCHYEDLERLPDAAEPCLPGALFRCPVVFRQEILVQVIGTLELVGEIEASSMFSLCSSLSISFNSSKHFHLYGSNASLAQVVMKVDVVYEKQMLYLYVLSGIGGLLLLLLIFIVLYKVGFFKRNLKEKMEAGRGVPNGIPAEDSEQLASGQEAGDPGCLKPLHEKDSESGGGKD
- Sequence (P05107 23-769): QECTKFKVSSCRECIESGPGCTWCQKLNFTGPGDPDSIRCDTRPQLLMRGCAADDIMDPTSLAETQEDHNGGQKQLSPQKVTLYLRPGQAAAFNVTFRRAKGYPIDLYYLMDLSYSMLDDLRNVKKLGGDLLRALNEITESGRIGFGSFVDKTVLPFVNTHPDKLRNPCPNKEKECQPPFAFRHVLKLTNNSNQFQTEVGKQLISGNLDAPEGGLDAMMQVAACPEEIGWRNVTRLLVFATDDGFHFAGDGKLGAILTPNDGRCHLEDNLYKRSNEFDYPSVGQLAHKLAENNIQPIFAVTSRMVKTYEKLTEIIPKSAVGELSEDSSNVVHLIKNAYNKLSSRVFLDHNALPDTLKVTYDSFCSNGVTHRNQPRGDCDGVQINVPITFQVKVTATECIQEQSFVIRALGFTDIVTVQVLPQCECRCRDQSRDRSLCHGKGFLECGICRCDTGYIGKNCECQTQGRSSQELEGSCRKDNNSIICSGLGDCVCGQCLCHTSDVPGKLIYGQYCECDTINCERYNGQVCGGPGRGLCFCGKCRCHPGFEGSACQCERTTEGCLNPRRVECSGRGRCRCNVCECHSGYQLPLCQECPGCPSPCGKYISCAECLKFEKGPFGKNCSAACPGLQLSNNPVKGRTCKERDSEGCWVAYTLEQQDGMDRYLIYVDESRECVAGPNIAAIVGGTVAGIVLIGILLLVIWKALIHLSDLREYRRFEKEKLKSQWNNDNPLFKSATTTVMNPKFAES
- ASSAY COMMENT: Assay to determine inhibition of LFA-1 binding to ICAM-1 (immunopurified LFA-1 on plate-bound sICAM-1, ELISA readout)
- CONDITION NOTES: values marked e approximated from incomplete dose-response curve
By convention, pKd is the negative base-10 log of a molar concentration.

Ask: Respond only with pKd recorded for CN1C(=O)N(c2cc(Cl)cc(Cl)c2)C(=O)C1(C)Cc1ccc(C(=O)c2ccccc2)cc1 (stereo not drawn)
Reply: 6.39

Ask: Respond only with pKd recorded for CC1(Cc2ccc(-c3ccsc3)cc2)NC(=O)N(c2cc(Cl)cc(Cl)c2)C1=O (stereo not drawn)
Reply: 7.05

Ask: Respond only with pKd recorded for COc1cccc(CC2(C)C(=O)N(c3cc(Cl)cc(Cl)c3)C(=O)N2C)c1 (stereo not drawn)
Reply: 5.97
